tested-system: Cry2 PHR (L348F)-p65AD-NLSx2 fusion construct as released from the TetR (I194T, 1-206)-CIB1 (-NLS)-T2A-Cry2 PHR (L348F)-p65AD-NLSx2 fusion construct
Sequence (Q96524 other isoform, or with tags, fused parts or gaps L348F I194T L348F L348F I194T L348F): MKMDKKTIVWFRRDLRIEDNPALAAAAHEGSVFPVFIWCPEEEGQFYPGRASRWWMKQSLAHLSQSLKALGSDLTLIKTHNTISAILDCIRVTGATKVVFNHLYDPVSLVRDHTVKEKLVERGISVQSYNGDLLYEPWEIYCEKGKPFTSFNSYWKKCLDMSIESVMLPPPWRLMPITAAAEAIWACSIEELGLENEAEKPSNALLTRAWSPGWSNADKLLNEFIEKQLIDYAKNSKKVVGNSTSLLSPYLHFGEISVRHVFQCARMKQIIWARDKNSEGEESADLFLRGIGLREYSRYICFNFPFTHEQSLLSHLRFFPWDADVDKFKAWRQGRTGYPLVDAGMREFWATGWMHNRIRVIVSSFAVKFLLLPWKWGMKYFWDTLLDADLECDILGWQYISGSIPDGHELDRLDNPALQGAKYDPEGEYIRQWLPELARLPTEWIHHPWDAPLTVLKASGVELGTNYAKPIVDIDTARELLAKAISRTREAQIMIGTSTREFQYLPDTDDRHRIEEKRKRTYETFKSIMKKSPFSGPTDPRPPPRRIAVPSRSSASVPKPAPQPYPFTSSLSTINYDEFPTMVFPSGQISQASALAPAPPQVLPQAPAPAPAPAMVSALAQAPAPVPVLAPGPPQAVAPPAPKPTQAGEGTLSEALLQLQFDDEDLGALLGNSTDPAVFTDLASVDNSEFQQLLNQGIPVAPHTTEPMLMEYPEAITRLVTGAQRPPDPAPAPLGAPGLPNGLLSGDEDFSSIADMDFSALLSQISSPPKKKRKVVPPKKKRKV
measurement-notes: cell-based or functional assay
value-type: Light/Dark, Dox 0 ng/mL
Give the figure by itself; no unit, no explanation.

binder	Light/Dark, Dox 0 ng/mL
TetR (I194T, H100Y, 1-206)-CIB1 (-NLS) from the T2A construct (protein, part only, T2A residues at C-terminus) MARLDKSKVINSALELLNEVGIEGLTTRKLAQKLGVEQPTLYWHVKNKRALLDALAIEMLDRHHTHFCPLEGESWQDFLRNNAKSFRCALLSHRDGAKVYLGTRPTEKQYETLENQLAFLCQQGFSLENALYALSAVGHFTLGCVLEDQEHQVAKEERETPTTDSMPPLLRQAIELFDHQGAEPAFLFGLELITCGLEKQLKCESGSPKKKHMEFNGAIGGDLLLNFPDMSVLERQRAHLKYLNPTFDSPLAGFFADSSMITGGEMDSYLSTAGLNLPMMYGETTVEGDSRLSISPETTLGTGNFKAAKFDTETKDCNEAAKKMTMNRDDLVEEGEEEKSKITEQNNGSTKSIKKMKHKAKKEENNFSNDSSKVTKELEKTDYI	30.6
TetR (I194T, 1-206)-CIB1 (-NLS) fusion construct as released from the TetR (I194T, 1-206)-CIB1 (-NLS)-T2A-Cry2 PHR (L348F)-p65AD-NLSx2 fusion construct (protein, part only, residual T2A residues at C-terminus) MARLDKSKVINSALELLNEVGIEGLTTRKLAQKLGVEQPTLYWHVKNKRALLDALAIEMLDRHHTHFCPLEGESWQDFLRNNAKSFRCALLSHRDGAKVHLGTRPTEKQYETLENQLAFLCQQGFSLENALYALSAVGHFTLGCVLEDQEHQVAKEERETPTTDSMPPLLRQAIELFDHQGAEPAFLFGLELITCGLEKQLKCESGSPKKKHMEFNGAIGGDLLLNFPDMSVLERQRAHLKYLNPTFDSPLAGFFADSSMITGGEMDSYLSTAGLNLPMMYGETTVEGDSRLSISPETTLGTGNFKAAKFDTETKDCNEAAKKMTMNRDDLVEEGEEEKSKITEQNNGSTKSIKKMKHKAKKEENNFSNDSSKVTKELEKTDYI	36.2
rTetR (I194T, S2 mutation, 1-206)-CIB1 (-NLS) from the T2A construct (protein, part only; not given: Leftover T2A residues, part only) chain, part: MARLDKSKVINSALELLNGVGIEGLTTRKLAQKLGVEQPTLYWHVKNKRALLDALPIEMLDRHHTHFCPLEGESWQDFLRNNAKSFRCALLSHRDGAKVHLGTRPTEKQYETLENQLAFLCQQGFSLENALYALSAVGHFTLGCVLEEQEHQVAKEERETPTTDSMPPLLRQAIELFDRQGAEPAFLFGLELITCGLEKQLKCESGSPKKKHMEFNGAIGGDLLLNFPDMSVLERQRAHLKYLNPTFDSPLAGFFADSSMITGGEMDSYLSTAGLNLPMMYGETTVEGDSRLSISPETTLGTGNFKAAKFDTETKDCNEAAKKMTMNRDDLVEEGEEEKSKITEQNNGSTKSIKKMKHKAKKEENNFSNDSSKVTKELEKTDYI	3.1

(Q) # Light/Dark, Dox 0 ng/mL lookup, item rTetR (I194T, rtTA mutation, 1-206)-CIB1 (-NLS) from the T2A construct (protein, part only; not given: Leftover T2A residues, part only) chain, part: MARLDKSKVINSALELLNEVGIEGLTTRKLAQKLGVEQPTLYWHVKNKRALLDALAIEMLDRHHTHFCPLKGESWQDFLRNNAKSFRCALLSHRNGAKVHSDTRPTEKQYETLENQLAFLCQQGFSLENALYALSAVGHFTLGCVLEDQEHQVAKEERETPTTDSMPPLLRQAIELFDHQGAEPAFLFGLELITCGLEKQLKCESGSPKKKHMEFNGAIGGDLLLNFPDMSVLERQRAHLKYLNPTFDSPLAGFFADSSMITGGEMDSYLSTAGLNLPMMYGETTVEGDSRLSISPETTLGTGNFKAAKFDTETKDCNEAAKKMTMNRDDLVEEGEEEKSKITEQNNGSTKSIKKMKHKAKKEENNFSNDSSKVTKELEKTDYI
(A) 3.5
